METHOD_SUMMARY: Inhibitory concentration of compound on platelet aggregation
Assay type: functional
Parameter: pIC50. Scope: all listed entries.
The quantity pIC50 is defined as the negative base-10 logarithm of the molar concentration.

Solved entries (count: 3):
Nc1nc(C#Cc2ccccc2)nc2c1ncn2C1O[C@H](COP(=O)(O)OP(=O)(O)O)[C@@H](O)[C@H]1O (some centres undefined)
4.22
Nc1nc(C#Cc2ccccc2)nc2c1ncn2[C@@H]1O[C@H](COP(=O)(O)OP(=O)(O)OP(=O)(O)O)[C@@H](O)[C@H]1O
4.07
CCCCC#Cc1nc(N)c2ncn(C3O[C@H](COP(=O)(O)O)[C@@H](O)[C@H]3O)c2n1 (some centres undefined)
4.85

Continue with the compound presented below.
Query: Give the measured pIC50 of Nc1nc(C#Cc2ccccc2)nc2c1ncn2C1O[C@H](COP(=O)(O)O)[C@@H](O)[C@H]1O (some centres undefined) .
Result: 3.89
